Cited source: paper PMC8967717

target: SARS-CoV-2 wild-type spike receptor-binding domain (SARS-CoV-2, WT (MN908947), UniProt P0DTC2)

# binder, binding result
data = [
    ("XGv288 (antibody, V domains shown) VH: QVQLVQSGAEVKKPGASVKVSCKASGYTFTNYYIHWVRQAPGQGLEWMAIINPSGGGASYAHKFQGRVTMTRDTSTSTLYMELISLRSDDTAVYYCARAEGSSWLGWFDPWGQGTLITVSS VL: QSVLTQPPSASGTPGQRVTISCSGSSSNIGSNYVYWYQQLPGTAPKLLIYRNAQRPSGVPDRFSGSKSGTSASLAISGLRSEDEADYYCAAWDDGLSGSGWVFGGGTKLTV", "binds"),
    ("XGV050 (antibody, V domains shown) VH: EVQLVESGGGLVQPGGSLRLSCAASGFTFSRYDMHWVRQAAGKGLEWVSGIGAPGDTYYAGSVKGRFTISRENAKTSLHLQMNNLRAGDTAVYYCTRGWFGENYMDVWGKGTTVTVSS VL: EIVLTQSPATLSLSPGERATLSCRASQSVSNHLAWFQQKPGQSPRLLIYDASNRATGIPARFSGSGSGTDFTLTISSLEPEDFAIYYCHQRSNWPTFGQGTKVEIK", "binds"),
]
